Assay: Normal rat biodistribution
Assay type: in vivo
Settings: 30 min post-injection, i.v., male Wistar rats, Mean±SD n=3
Label rule met when % ID GI Tract is at or above 50 % ID; anything below gets rule not met.

Consider the following illustrative entries.
COMPOUND: CC(=NO)C(C)(C)NCC(C)(CNC(=O)CCCCCN)CNC(C)(C)C(C)=NO (stereo not shown) [Compound 4]
CAT: rule met
--
COMPOUND: CC(=NO)C(C)(C)NCC(C)(CNC(=O)c1ccc(S(=O)(=O)NCCCCCN)cc1)CNC(C)(C)C(C)=NO (stereo not shown) [Compound 3]
CAT: rule met

We now examine a further compound.
Is reported % ID GI Tract greater than or equal to 50 % ID here: CC(CNCc1ccccc1O)(CNCc1ccccc1O)CNC(=O)c1ccc(S(=O)(=O)NCCCCCN)cc1 [Compound 25]
rule met

* * *

Experiment: Normal rat biodistribution
Format: in vivo
Conditions: 30 min post-injection, i.v., male Wistar rats, Mean±SD n=3
# % ID Urine per record follows
Respond with the figure and its unit, in that order.

Record excerpt, results attached:
COMPOUND: CC(=NO)C(C)(C)NCC(C)(CNC(=O)C1CCC(CNC(=O)c2ccc(S(=O)(=O)NCCCCCN)cc2)CC1)CNC(C)(C)C(C)=NO (stereo not shown) [Compound 8]
% ID Urine: 7.18 ± 1.24 % ID

COMPOUND: CC(CNCc1ccccc1O)(CNCc1ccccc1O)CNC(=O)c1ccc(S(=O)(=O)NCCCCCN)cc1 [Compound 25]
% ID Urine: 11.6 ± 2.0 % ID

COMPOUND: CC(=NO)C(C)(C)NCC(C)(CNC(=O)CCCCCN)CNC(C)(C)C(C)=NO (stereo not shown) [Compound 4]
% ID Urine: 19.49 ± 1.96 % ID

GET /values?readout=% ID Urine&item= CC(=NO)C(C)(C)NCCN(CCNC(=O)C1CCC(CNC(=O)c2ccc(S(=O)(=O)NCCCCCN)cc2)CC1)CCNC(C)(C)C(C)=NO (stereo not shown) [Compound 17]
46.9 ± 3.71 % ID

* * *

Test: Normal rat biodistribution
Type: in vivo
Conditions: 30 min post-injection, i.v., male Wistar rats, Mean±SD n=3
Procedure: The resolution of a clot image is dependant on the combination of rate of incorporation of the radiopharmaceutical and its blood/tissues clearance rate. For this reason the biodistribution of several compounds has been determined in rats. Male Wistar (100-150 g) rats were injected i.v. with 0.1-0.2 ml of radiolabelled tracer solution (8 MBq/ml) and dissected at different times post-injection. The % ID in each of the selected tissues was measured. […]
MEASURED_QUANTITY: % ID Kidney (% ID)
Field format: number, assumed % ID, no unit text.

MOLECULE: CC(=NO)C(C)(C)NCC(C)(CNC(=O)C1CCC(CNC(=O)c2ccc(S(=O)(=O)NCCCCCN)cc2)CC1)CNC(C)(C)C(C)=NO (stereo not shown)
UNIT_TAG: % ID
% ID Kidney: 1.8

MOLECULE: CC(=NO)C(C)(C)NCC(C)(CNC(=O)CCCCCN)CNC(C)(C)C(C)=NO (stereo not shown)
UNIT_TAG: % ID
% ID Kidney: 2.39

MOLECULE: CC(CNCc1ccccc1O)(CNCc1ccccc1O)CNC(=O)c1ccc(S(=O)(=O)NCCCCCN)cc1
UNIT_TAG: % ID
% ID Kidney: 5.6

Kindly consider the entry below.
GET /values?readout=% ID Kidney&item= CC(=NO)C(C)(C)NCC(C)(CNC(=O)c1ccc(S(=O)(=O)NCCCCCN)cc1)CNC(C)(C)C(C)=NO (stereo not shown)
2.09
